- Tested on: EB–DNA
- test_summary: EB–DNA competitive fluorescence emission titration
- Format: binding
# key: entry, value: Scatchard analysis KSA

{"columns": ["structure_smiles_string", "target_under_test", "Scatchard analysis KSA, M⁻¹"],
 "data": [
  ["[Ni+2].[O-]c1ccccc1N=Cc1ccc(N2CCOCC2)cc1.[O-]c1ccccc1N=Cc1ccc(N2CCOCC2)cc1.c1ccc(-c2ccccn2)nc1", "EB–DNA", 32363],
  ["[Mn+2].[O-]c1ccccc1N=Cc1ccc(N2CCOCC2)cc1.[O-]c1ccccc1N=Cc1ccc(N2CCOCC2)cc1.c1ccc(-c2ccccn2)nc1", "EB–DNA", 30094],
  ["Oc1ccccc1N=Cc1ccc(N2CCOCC2)cc1", "EB–DNA", 19093],
  ["[Co+2].[O-]c1ccccc1N=Cc1ccc(N2CCOCC2)cc1.[O-]c1ccccc1N=Cc1ccc(N2CCOCC2)cc1.c1ccc(-c2ccccn2)nc1", "EB–DNA", 33185]
]}

Sourced from paper PMC10508264
